tested on: MS2 coat protein; assay: apparent KD of MS2 coat protein; designed switch direction (-1 OFF switch, 1 ON switch): 1; higher = weaker reporter binding; conditions: input ligand: microRNA oligo, concentration not stated
Below, each entry is listed with its recorded apparent KD of MS2 coat protein.

- construct_sequence: "CAGCGCUGUCGAGAGGAUAUGCGGUGAUGGACAUGAGGAUCACCCAUGUAAGCGAUAGCAUUACGGCAGAAGGCUCUGCAGCUGC [Riaranzaes] (Eterna round: R96, puzzle: Same State 2)"
  tgt: "MS2 coat protein"
  apparent KD of MS2 coat protein: "17.2 nM"
- construct_sequence: "UGGCUCAGACGAGGAUAUAUGUCUCGAGCUUCGGCUCGAGACAUGAGGAUCACCCAUGUAAUAACAUAGAAGGUGUCUGAGCCA [SSNG2/1-C2] (Eterna round: R96, puzzle: Same State NG 2)"
  tgt: "MS2 coat protein"
  apparent KD of MS2 coat protein: "240 nM"
- construct_sequence: "AGUCCAGCCUGAGCUGGACAAAAGCAUGUACAUGAGGAUCACCCAUGUUCAUGUACAAGCUUUUUGCUCGUCUUGAA [salish99_208a_r3_095x] (Eterna round: R96, puzzle: Sensor for hsa-mir-208a)"
  tgt: "MS2 coat protein"
  apparent KD of MS2 coat protein: "16.1 nM"
- construct_sequence: "AUUCGUUUGAUAGGAUAUCACUUUACAUGAGGAUCACCCAUGUUCACCACGCUGGUCUCUUAUACUGAGAAGGAUCUUGAUGAC [JR_SSNG2_Sub009] (Eterna round: R96, puzzle: Same State NG 2)"
  tgt: "MS2 coat protein"
  apparent KD of MS2 coat protein: "18.8 nM"
- construct_sequence: "GUGGUCAGACAUGAGGAUCACCCAUGUGGAAUAAAUAAGGAGAAGGAUAUCGAAUAUAGGAUAUACGAGAAGGUCUGGUUGGUG (Eterna round: R96, puzzle: Same State NG 3)"
  tgt: "MS2 coat protein"
  apparent KD of MS2 coat protein: "75.2 nM"
